- Target of assay: Dual specificity protein kinase CLK1 (Mus musculus)
- Assay notes: Inhibition of recombinant mouse CLK1 expressed in bacteria assessed as enzyme residual activity using GRSRSRSRSRSR as substrate at 10 uM incubated for 30 mins in presence of ATP by ADP-Glo kinase assay
Please respond with 1 (yes) when measured Activity is strictly beneath 40%, and with 0 (no) in all other cases.

Would you please look over these solved cases?
INSERT INTO assay_data (entry_smiles, group_label) VALUES
  ('CN(C)Cc1c[nH]c2cc3cnccc3cc12', '0 (no)'),
  ('Cn1ccc2cc3ccncc3cc21', '0 (no)'),
  ('c1cc(-c2c[nH]c3cc4cnccc4cc23)ccn1', '1 (yes)'),
  ('NCc1c[nH]c2cc3cnccc3cc12', '0 (no)'),
  ('Cn1cc(I)c2cc3ccncc3cc21', '1 (yes)');

Could you please tell me whether Activity recorded for O=Cc1c[nH]c2cc3cnccc3cc12 is less than 40%?
1 (yes)

Is Activity of CCn1ncc2cc3cnccc3c(N)c21 strictly below 40%?
1 (yes)

API: query returns whether the compound falls strictly under 40% in Activity. Query: CCNCc1c[nH]c2cc3cnccc3cc12
0 (no)

Report whether reported Activity is lower than 40% (strictly) for Nc1cc2cc3ccncc3cc2[nH]1
1 (yes)

Does the reported Activity of c1cc2cc3c(-c4cncnc4)c[nH]c3cc2cn1 stay below 40%?
1 (yes)

# check: Activity < 40% for c1cc2cc3cc[nH]c3cc2cn1
0 (no)

Confirm or reject: Activity of c1ccc(-c2c[nH]c3cc4cnccc4cc23)cc1 lies strictly below 40%
0 (no)

Could you please tell me whether Activity recorded for CC(=O)c1c[nH]c2cc3cnccc3cc12 is less than 40%?
1 (yes)
